systemName: T1, human soluble ULBP6 haplotype 02 (hULBP6_02) (human, UniProt Q5VY80 26-218)
T1 construct: also called sULBP6_02
T1 chain: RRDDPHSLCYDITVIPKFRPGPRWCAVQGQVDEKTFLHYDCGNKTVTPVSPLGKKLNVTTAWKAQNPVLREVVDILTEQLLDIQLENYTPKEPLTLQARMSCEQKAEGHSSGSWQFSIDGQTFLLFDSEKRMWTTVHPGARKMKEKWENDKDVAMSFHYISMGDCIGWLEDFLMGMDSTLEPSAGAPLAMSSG
protocolDescription: SPR (BIACORE 8K, 37 C); antibody captured on Protein A, soluble ULBP injected;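 note: ligand injected as threefold dilution series in HBS-P (highest 10 or 50 nM), reference-cell and buffer-subtracted sensorgrams fitted with a 1:1 Langmuir model for on and off rates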
Item-by-item account of koff

| binder | unitName | koff |
| --- | --- | --- |
| humanized 8E11 (h8E11), Fc version not stated (antibody, V domains shown, Recombinant humanized antibody, hIgG1 backbone with kappa light chain; also called PUR3926) VH: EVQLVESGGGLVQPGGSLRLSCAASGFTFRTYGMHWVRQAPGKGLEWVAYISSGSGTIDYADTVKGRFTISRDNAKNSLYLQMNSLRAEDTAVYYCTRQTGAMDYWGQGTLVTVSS VL: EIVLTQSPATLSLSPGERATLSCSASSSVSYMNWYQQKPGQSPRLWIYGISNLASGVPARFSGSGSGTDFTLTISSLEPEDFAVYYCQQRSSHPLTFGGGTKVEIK | s⁻¹ | 0.000459 |
| humanized 1D4 (h1D4), Fc version not stated (antibody, V domains shown, Recombinant humanized antibody, hIgG1 backbone with kappa light chain; also called hiD4; hu1D4) VH: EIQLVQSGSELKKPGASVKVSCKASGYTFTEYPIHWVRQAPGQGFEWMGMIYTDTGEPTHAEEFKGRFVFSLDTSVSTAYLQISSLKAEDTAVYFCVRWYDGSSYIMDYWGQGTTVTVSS VL: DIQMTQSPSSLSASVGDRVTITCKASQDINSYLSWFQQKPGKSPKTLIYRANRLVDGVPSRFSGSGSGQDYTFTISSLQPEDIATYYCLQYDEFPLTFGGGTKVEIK | s⁻¹ | 0.00215 |
| humanized 6E1 (h6E1), Fc version not stated (antibody, V domains shown, Recombinant humanized antibody, hIgG1 backbone with kappa light chain; also called hu6E1; PUR3993) VH: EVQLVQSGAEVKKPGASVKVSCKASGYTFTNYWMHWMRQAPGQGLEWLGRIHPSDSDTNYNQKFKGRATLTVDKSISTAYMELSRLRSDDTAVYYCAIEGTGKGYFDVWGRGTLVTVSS VL: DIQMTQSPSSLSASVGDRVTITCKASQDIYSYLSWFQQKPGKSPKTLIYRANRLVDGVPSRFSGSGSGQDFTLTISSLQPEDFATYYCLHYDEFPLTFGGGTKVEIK | s⁻¹ | 0.00664 |
